tested system: UniProt P33535
test name: Stimulation of [35S]GTPγS binding, MOR
experimental setup: [35S]GTPγS binding, C6-MOR membranes; mean ± standard error
assay readout: log10 EC50 (log10 of the value in nM)

Cc1cc(O)cc(C)c1C[C@H](N)C(=O)N[C@@H]1CCSc2ccc(Cc3ccccc3)cc21: 0.28
Cc1cc(O)cc(C)c1C[C@H](N)C(=O)N[C@@H]1CCNc2c(-c3ccoc3)cc(Cc3ccccc3)cc21: 0.99
CC(=O)N1CC[C@@H](NC(=O)[C@@H](N)Cc2c(C)cc(O)cc2C)c2cccc(Cc3ccccc3)c21: 1.28
Cc1cc(O)cc(C)c1C[C@H](N)C(=O)N[C@@H]1CCNc2ccc(Cc3c(Cl)cccc3Cl)cc21: 3.31
Cc1cc(O)cc(C)c1C[C@H](N)C(=O)N[C@@H]1CCC(C)(C)c2ccc(Cc3ccccc3)cc21: 1.20
CC(=O)N1CC[C@H](NC(=O)[C@@H](N)Cc2c(C)cc(O)cc2C)c2cc(Oc3ccccc3)ccc21: 2.78
COc1cc(Cc2ccccc2)cc2c1N(C(C)=O)CC[C@H]2NC(=O)[C@@H](N)Cc1c(C)cc(O)cc1C: -0.11

====

Reported pKi values for the following compounds.
tested system: rat μ (C6-MOR) opioid receptor (Rattus norvegicus, UniProt P33535)
Sequence (P33535 whole entry): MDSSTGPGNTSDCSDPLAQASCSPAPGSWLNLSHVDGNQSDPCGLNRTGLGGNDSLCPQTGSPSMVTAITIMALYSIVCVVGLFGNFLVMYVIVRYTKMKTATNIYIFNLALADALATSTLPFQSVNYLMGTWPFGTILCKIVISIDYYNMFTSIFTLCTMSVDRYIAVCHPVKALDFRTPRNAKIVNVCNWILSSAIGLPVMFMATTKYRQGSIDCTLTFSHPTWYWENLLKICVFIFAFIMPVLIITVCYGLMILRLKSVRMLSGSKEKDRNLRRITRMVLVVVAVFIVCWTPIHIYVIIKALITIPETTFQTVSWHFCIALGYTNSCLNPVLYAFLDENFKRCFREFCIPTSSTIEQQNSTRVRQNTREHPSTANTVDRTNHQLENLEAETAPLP
pKi: −log10 of the molar value.
assay readout: pKi

Cc1cc(O)cc(C)c1C[C@H](N)C(=O)N[C@@H]1CCNc2ccc(Cc3cc4ccccc4o3)cc21 [Compound 1065]: 9.96
Cc1cc(O)cc(C)c1C[C@H](N)C(=O)NC1CCNc2ccc(Oc3ccccc3)cc21 (stereo partly shown) [Compound 1017]: 9.38
Cc1cc(O)cc(C)c1C[C@H](N)C(=O)N[C@@H]1CCNc2ccc(CC3Cc4ccc(O)cc4C3)cc21 (stereo partly shown) [Compound 1038]: 9.14
Cc1cc(O)cc(C)c1C[C@H](N)C(=O)N[C@@H]1CCNc2ccc(CN3CCC[C@H]4CCCC[C@@H]43)cc21 [Compound 1051]: 9.74
CC(=O)N1CC[C@@H](NC(=O)[C@@H](N)Cc2c(C)cc(O)cc2C)c2cc(Oc3ccc(Cl)cc3)ccc21 [Compound 1026]: 10.00
CCCCc1cc(Cc2ccccc2)cc2c1NCC[C@H]2NC(=O)[C@@H](N)Cc1c(C)cc(O)cc1C [Compound 1126]: 9.12
CC(=O)N1CC[C@@H](NC(=O)[C@@H](N)Cc2c(C)cc(O)cc2C)c2cc(CN3CCc4cccc(C(F)(F)F)c4C3)ccc21 [Compound 1066]: 9.80

====

System: C57BL/6 mice
test name: Antinociception, warm water tail withdrawal assay
Format: in vivo
experimental setup: duration of antinociceptive action, mouse tail withdrawal, 50° C.
assay readout: Duration (min)

Cc1cc(O)cc(C)c1C[C@H](N)C(=O)N[C@@H]1CCNc2c(C)cc(Cc3ccccc3)cc21 [Compound 1100]: 90
CCCCc1cc(Cc2ccccc2)cc2c1NCC[C@H]2NC(=O)[C@@H](N)Cc1c(C)cc(O)cc1C [Compound 1126]: 150
CCc1cc(Cc2ccccc2)cc2c1NCC[C@H]2NC(=O)[C@@H](N)Cc1c(C)cc(O)cc1C [Compound 1127]: 60
CCOC(=O)c1cc(Cc2ccccc2)cc2c1NCC[C@H]2NC(=O)[C@@H](N)Cc1c(C)cc(O)cc1C [Compound 1102]: 150

====

tested system: rat μ (C6-MOR) opioid receptor (Rattus norvegicus, UniProt P33535)
pKi: −log10 of the molar value.
assay readout: pKi

Cc1cc(O)cc(C)c1C[C@H](N)C(=O)N[C@@H]1CCNc2c1cc(Cc1ccccc1)cc2C(C)(C)C: 9.04
Cc1cc(O)cc(C)c1C[C@H](N)C(=O)N[C@@H]1CCNc2ccc(CC3Cc4cccc(O)c4C3)cc21 (stereo partly drawn): 9.74
COc1ccc2c(c1)CC(Cc1ccc3c(c1)[C@H](NC(=O)[C@@H](N)Cc1c(C)cc(O)cc1C)CCN3)C2 (stereo partly drawn): 9.59
Cc1cc(O)cc(C)c1C[C@H](N)C(=O)N[C@@H]1CCNc2c(Cc3ccccc3)cccc21: 7.24
Cc1cc(O)cc(C)c1C[C@H](N)C(=O)N[C@@H]1CCCc2ccc(-c3ccc4ccccc4c3)cc21: 9.62
Cc1cc(O)cc(C)c1C[C@H](N)C(=O)N[C@@H]1CCNc2ccc(Cc3c(Cl)cccc3Cl)cc21: 10.10
Cc1cc(O)cc(C)c1C[C@H](N)C(=O)N[C@@H]1CCNc2ccc(Cc3ccc4c(c3)OCCO4)cc21: 9.46
COc1cc(Cc2ccccc2)cc2c1N(C(C)=O)CC[C@H]2NC(=O)[C@@H](N)Cc1c(C)cc(O)cc1C: 9.85
Cc1cc(O)cc(C)c1C[C@H](N)C(=O)N(C)[C@H]1CCNc2ccc(Cc3ccccc3)cc21: 9.10
CCCCCCc1ccc2c(c1)[C@H](NC(=O)[C@@H](N)Cc1c(C)cc(O)cc1C)CCN2: 9.89
CC(=O)N1CC[C@H](NC(=O)[C@@H](N)Cc2c(C)cc(O)cc2C)c2cc(Oc3ccccc3)ccc21: 8.20
Cc1cc(O)cc(C)c1C[C@H](N)C(=O)N[C@@H]1CCNc2ccc(CN3CCNCC3)cc21: 7.78
CCCCCCc1ccc2c(c1)[C@@H](NC(=O)[C@@H](N)Cc1c(C)cc(O)cc1C)CCN2: 6.53
COc1ccccc1Oc1ccc2c(c1)[C@H](NC(=O)[C@@H](N)Cc1c(C)cc(O)cc1C)CCN2: 9.44
Cc1ccc2c(c1)CN(Cc1ccc3c(c1)[C@H](NC(=O)[C@@H](N)Cc1c(C)cc(O)cc1C)CCN3)CC2: 9.77

====

Reported Emax values for the following molecules.
tested system: rat μ (C6-MOR) opioid receptor (Rattus norvegicus, UniProt P33535)
Construct: expressed in transfected cells
test name: Stimulation of [35S]GTPγS binding, MOR
Assay type: biochemical
experimental setup: [35S]GTPγS maximal stimulation compared with 10 μM standard DAMGO
assay readout: Emax (%)

Cc1cc(O)cc(C)c1C[C@H](N)C(=O)N[C@@H]1CCNc2ccc(Cc3ccc4c(c3)OCCO4)cc21: 87.5
Cc1ccc(Cc2ccc3c(c2)[C@@H](NC(=O)[C@@H](N)Cc2c(C)cc(O)cc2C)CCN3)cc1: 55
Cc1cc(O)cc(C)c1C[C@H](N)C(=O)N[C@@H]1CCNc2ccc(Cc3c(Cl)cccc3Cl)cc21: 33.6
Cc1cc(O)cc(C)c1C[C@H](N)C(=O)N[C@@H]1CCNc2c(C(=O)NCc3ccccc3)cc(Cc3ccccc3)cc21: 79
Cc1cc(O)cc(C)c1C[C@H](N)C(=O)N[C@@H]1C[C@@H](C)Nc2ccc(Cc3ccccc3)cc21: 87.8
Cc1cc(O)cc(C)c1C[C@H](N)C(=O)N[C@@H]1CCSc2ccc(Cc3ccccc3)cc21: 79.9
Cc1cc(O)cc(C)c1C[C@H](N)C(=O)N[C@@H]1CCN(C)c2ccc(Cc3ccccc3)cc21: 102

====

tested system: rat μ (C6-MOR) opioid receptor (Rattus norvegicus, UniProt P33535)
test name: Stimulation of [35S]GTPγS binding, MOR
experimental setup: [35S]GTPγS binding, C6-MOR membranes; mean ± standard error
Description: In Vitro Pharmacology-Cell Lines and Membrane Preparations. All tissue culture reagents were purchased from Gibco Life Sciences (Grand Island, N.Y., U.S.). […] Protein concentration was determined via Bradford assay using bovine serum albumin as the standard. Stimulation of [^35S]GTPyS Binding. […] The reaction was terminated by rapidly filtering through GF/C filters and washing 10 times with GTPyS buffer, and retained radioactivity was measured as described above. […]
pEC50: −log10 of the molar value.
Classification field: enter true (1) for pEC50 values not below 8, false (0) for values below it.

CCCCc1cc(Cc2ccccc2)cc2c1NCC[C@H]2NC(=O)[C@@H](N)Cc1c(C)cc(O)cc1C [Compound 1126]: false (0)
COc1cccc2c1CC(Cc1ccc3c(c1)[C@H](NC(=O)[C@@H](N)Cc1c(C)cc(O)cc1C)CCN3)C2 (stereo partly drawn) [Compound 1035]: true (1)
COC(=O)N1CC[C@@H](NC(=O)[C@@H](N)Cc2c(C)cc(O)cc2C)c2cc(CC3Cc4ccccc4C3)ccc21 [Compound 1044]: true (1)
COc1ccc2c(c1)CC(Cc1ccc3c(c1)[C@H](NC(=O)[C@@H](N)Cc1c(C)cc(O)cc1C)CCN3)C2 (stereo partly drawn) [Compound 1037]: false (0)
CCC(=O)N1CC[C@@H](NC(=O)[C@@H](N)Cc2c(C)cc(O)cc2C)c2cc(CC3Cc4ccccc4C3)ccc21 [Compound 1033]: true (1)

====

tested system: rat μ (C6-MOR) opioid receptor (Rattus norvegicus, UniProt P33535)
Construct: expressed in transfected cells
test name: Radioligand binding assay, [3H]diprenorphine displacement, MOR
experimental setup: displacement of 0.2 nM [3H]diprenorphine, C6-MOR membranes; mean ± standard error
pKi: −log10 of the molar value.
assay readout: pKi

Cc1cc(O)cc(C)c1C[C@H](N)C(=O)N[C@H]1CCN(C)c2ccc(Cc3ccccc3)cc21: 7.15
Cc1cc(O)cc(C)c1C[C@H](N)C(=O)N[C@@H]1CCNc2ccc(Cc3ccc(F)cc3)cc21: 10.15
Cc1cc(O)cc(C)c1C[C@H](N)C(=O)N[C@@H]1CCNc2c(C(=O)Nc3ccccc3)cc(Cc3ccccc3)cc21: 9.44
Cc1cc(O)cc(C)c1C[C@H](N)C(=O)N[C@@H]1CCNc2ccc(CN3CCCC4(CCCCC4)CC3)cc21: 9.27
Cc1cc(O)cc(C)c1C[C@H](N)C(=O)N[C@@H]1CCCc2ccc(-c3ccccc3)cc21: 9.24
COc1cc(Cl)c(C[C@H](N)C(=O)N[C@@H]2CCNc3ccc(Cc4ccccc4)cc32)c(Cl)c1: 7.42

Where do the numbers come from? From patent US10519114B2.
